# test description: Evaluation of aqueous solubility in different aqueous buffers (HPLC quantification)
# Type: physicochemical
# conditions used: aqueous buffer, thermodynamic from solid; Buffer: Phosphate pH 7.3; equilibrated at 25° C. for 24 hours; final pH 7.41
metric name: solubility at 24 h (µg/mL)
Lab book: enter the figure in µg/mL, no units written.

The molecule listed as CS(=O)(=O)CCN(Cc1ccc(-c2ccc3ncnc(Nc4ccc(OCc5cccc(F)c5)c(Cl)c4)c3c2)o1)C(=O)OCOP(=O)([O-])[O-].[Na+].[Na+] has a reported solubility at 24 h of 4600

---

# test description: Evaluation of aqueous solubility in different aqueous buffers (HPLC quantification)
# Assay type: physicochemical
# conditions used: aqueous buffer, thermodynamic from solid; Buffer: Phosphate pH 6.8; equilibrated at 25° C. for 24 hours; final pH 7.03
metric name: solubility at 24 h (µg/mL)
Lab book: enter the figure in µg/mL, no units written.

The molecule listed as CS(=O)(=O)CCN(Cc1ccc(-c2ccc3ncnc(Nc4ccc(OCc5cccc(F)c5)c(Cl)c4)c3c2)o1)C(=O)OCOP(=O)([O-])[O-].[Na+].[Na+] has a reported solubility at 24 h of 520
